system: biotinyl-Met-oxazolone; experiment: self-aminoacylation, catalytic enhancement (BMO) (fold over background); higher = more active; k-Seq, kA / k0A0; sequences stand for … in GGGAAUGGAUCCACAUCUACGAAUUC…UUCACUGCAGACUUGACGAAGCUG
Variants at the floor of the assay were thinned out.
Consider the following sequences; for each one, report its self-aminoacylation.

q: Give recorded self-aminoacylation with biotinyl-Met-oxazolone for the following sequence: CUACUGCAAACUAUCGGUCUG [Fam1A.1 aminoacylation ribozyme variant]
a: 0.824

q: Give recorded self-aminoacylation with biotinyl-Met-oxazolone for the following sequence: CAGUUUGCUGAUAGUCGCAAG [Fam3.1 aminoacylation ribozyme variant]
a: 1.11

q: Give recorded self-aminoacylation with biotinyl-Met-oxazolone for the following sequence: AUUACCCUGGUCAUACAGUGA [Fam2.1 aminoacylation ribozyme variant]
a: 4.03

q: Give recorded self-aminoacylation with biotinyl-Met-oxazolone for the following sequence: GUUCAGCUAGGUCAUCGGGUG [Fam2.2 aminoacylation ribozyme variant]
a: 3.72

q: Give recorded self-aminoacylation with biotinyl-Met-oxazolone for the following sequence: AAGGUUGCUAACAGUCGCAAG [Fam3.1 aminoacylation ribozyme variant]
a: 1.06

* * *

test system: biotinyl-Ile-oxazolone; experiment: self-aminoacylation, catalytic enhancement (BIO) (fold over background); higher = more active; k-Seq, kA / k0A0; sequences stand for … in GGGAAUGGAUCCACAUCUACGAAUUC…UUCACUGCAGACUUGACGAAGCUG
Fewer inactive variants are shown than the library holds.
Cut-off 1 on self-aminoacylation, inclusive. At or above means rule met; below means rule not met.

q: hey, is self-aminoacylation for this one >= 1? CCACACUCGAAGCAAUCGGUC [Fam1B.1 aminoacylation ribozyme variant]
a: rule met

q: hey, is self-aminoacylation for this one >= 1? CUACUUCAAACAACCGGUCUG [Fam1A.1 aminoacylation ribozyme variant]
a: rule not met

q: hey, is self-aminoacylation for this one >= 1? CCACACUUCUAGCAAUCAGUC [Fam1B.1 aminoacylation ribozyme variant]
a: rule not met

q: hey, is self-aminoacylation for this one >= 1? AUUACCGUGGUCACCGAGUGA [Fam2.1 aminoacylation ribozyme variant]
a: rule met

q: hey, is self-aminoacylation for this one >= 1? CCACAGUUCAAGCAAUCCGUC [Fam1B.1 aminoacylation ribozyme variant]
a: rule met

q: hey, is self-aminoacylation for this one >= 1? AUUACCCUGGUCAUCGAGGGA [Fam2.1 aminoacylation ribozyme variant]
a: rule met

q: hey, is self-aminoacylation for this one >= 1? CUUCUUCAAACAAUCGGCCUG [Fam1A.1 aminoacylation ribozyme variant]
a: rule met

q: hey, is self-aminoacylation for this one >= 1? CUACUUCAAAUAAUUGGUCUG [Fam1A.1 aminoacylation ribozyme variant]
a: rule not met

q: hey, is self-aminoacylation for this one >= 1? AUUCACCAAGGUCAUCGGGCG [Fam2.2 aminoacylation ribozyme variant]
a: rule met

q: hey, is self-aminoacylation for this one >= 1? AUUACCCUGAUCAUCCAGUGA [Fam2.1 aminoacylation ribozyme variant]
a: rule met

q: hey, is self-aminoacylation for this one >= 1? AAGUAUGCGAAUAGUCGCAAG [Fam3.1 aminoacylation ribozyme variant]
a: rule met

q: hey, is self-aminoacylation for this one >= 1? CCAGACUUCAAGCAAUCGGUA [Fam1B.1 aminoacylation ribozyme variant]
a: rule met

q: hey, is self-aminoacylation for this one >= 1? AUUCACUAAGGUCAUCGGGUG [Fam2.2 aminoacylation ribozyme variant]
a: rule met

q: hey, is self-aminoacylation for this one >= 1? AUUACCCUGGUCAGCGAGUGU [Fam2.1 aminoacylation ribozyme variant]
a: rule met

q: hey, is self-aminoacylation for this one >= 1? AACUUUGCUAAUAGGCGCAAG [Fam3.1 aminoacylation ribozyme variant]
a: rule met

q: hey, is self-aminoacylation for this one >= 1? AAAUUUGUUAAUAGUCGCAAG [Fam3.1 aminoacylation ribozyme variant]
a: rule met

q: hey, is self-aminoacylation for this one >= 1? CUACUUCAAACAAUCGUACUG [Fam1A.1 aminoacylation ribozyme variant]
a: rule not met

q: hey, is self-aminoacylation for this one >= 1? CUAUUUCAAACAGUCGGUCUG [Fam1A.1 aminoacylation ribozyme variant]
a: rule not met
